tested on: HOP-62; experiment: NCI tumour cell line growth inhibition, 48 h
Activity calls are given as the source filed them. Cut-off read from the data, not from the text of the source: active = GI50 up to about 1.1 µM and inactive = higher.
Outcome Measure: GI50

Data request: Record COC(=O)C1(Cc2cccc(Cl)c2)CCCCCCN1C(=O)c1ccccc1 (stereo not given) : what is its GI50 with HOP-62?
Data returned: 15.5 µM (inactive)

Data request: What do you get for Cc1cc(C)c2c(=N)c3ccccc3n(CCCCCCO)c2n1 ?
Data returned: 4.53 µM (inactive)

Data request: What do you get for O=C1/C(=C/c2ccccc2)N=C2Sc3c([nH]cnc3=O)N12 ?
Data returned: > 100 µM (inactive)

Data request: What do you get for O=C(Nc1ccccc1)C(=O)C(C(=O)c1ccccc1)C(c1ccccc1)c1ccccc1 (stereo not given) ?
Data returned: > 10 µM (inactive)

Data request: What do you get for CC(C)=CC(=O)Cc1nc2ccc([N+](=O)[O-])cc2[nH]c1=O ?
Data returned: > 100 µM (inactive)

Data request: What do you get for COc1cc(NS(C)(=O)=O)ccc1Nc1c2ccccc2nc2ccccc12 ?
Data returned: 0.084 µM (active)

Data request: What do you get for O=C1c2ccccc2C(=O)N1CCCC(=O)n1cc(F)c(=O)[nH]c1=O ?
Data returned: 8.26 µM (inactive)

Data request: What do you get for COc1cc(C[C@H]2c3cc(OC)c(OC)cc3CCN2C)c(Oc2cc3c(cc2OC)-c2c(OC)c(OC)cc4c2[C@H](C3)N(C)CC4)cc1OC ?
Data returned: 10.6 µM (inactive)

Data request: What do you get for COc1cccc(CC(C)N)c1 (stereo not given) ?
Data returned: > 100 µM (inactive)

Data request: What do you get for CC(=O)OCCOCn1c2c(c(=O)[nH]c1=O)CCC2 ?
Data returned: > 100 µM (inactive)

Data request: What do you get for c1ccc2sc(C3(N4CCCCC4)CCCCCC3)cc2c1 ?
Data returned: 28.8 µM (inactive)

Data request: What do you get for COC(=O)c1c(O)ccc2c1c1c(n2Cc2ccccc2)C(=O)c2ccccc2C1 ?
Data returned: > 100 µM (inactive)

Data request: What do you get for Cc1ccc(/N=N/C2S/C(=C(\C#N)c3nc4ccccc4[nH]3)N(c3ccccc3)C2=O)cc1 (stereo not given) ?
Data returned: 30.1 µM (inactive)

Data request: What do you get for COC1CC(C)([N+](=O)[O-])C(O)C(C)O1 (stereo not given) ?
Data returned: > 100 µM (inactive)

Data request: What do you get for O=c1[nH]cc(C(F)(C(F)(F)F)C(F)(F)F)c(=O)[nH]1 ?
Data returned: > 100 µM (inactive)

###

Measurement record for HCT-15; quantity recorded: GI50.

Data request: Value lookup for GI50; key = CC(C(N)=O)N(C)C(=O)c1cc2ccccc2[n+](Cc2ccccc2)c1 (stereo unspecified)
Data returned: > 100 µM

Data request: What do you get for N[C@@H](CCC(=O)NCP(=O)(O)O)C(=O)O ?
Data returned: > 100 µM

Data request: What do you get for O=C(CC(C(=O)c1ccsc1)c1ccc2c(c1)OCO2)c1ccccc1 (stereo unspecified) ?
Data returned: > 100 µM

Data request: What do you get for CC(C)(C)C1=CC(CCC(=O)Nc2ccccc2[N+](=O)[O-])=NC(S)N1 (stereo unspecified) ?
Data returned: > 100 µM

Data request: What do you get for O=C1CCC[C@@H]2NC[C@@H](c3ccc4c(c3)OCO4)[C@H]12 ?
Data returned: > 25 µM

Data request: What do you get for c1cc(CN2CCNCCNCCNCC2)cc(CN2CCNCCNCCNCC2)c1 ?
Data returned: > 10 µM
